pIC50 overview
Target System: His-tagged kinase domain of CSF-1R (amino acids 568-912) (Homo sapiens, UniProt P07333)
Construct: The His-tagged kinase domain of CSF-1R (i.e., amino acids 568-912, GeneBank ID NM_005211); His; made in house; host or cells: baculovirus infected SF+Express insect cells
Sequence (P07333 568-912): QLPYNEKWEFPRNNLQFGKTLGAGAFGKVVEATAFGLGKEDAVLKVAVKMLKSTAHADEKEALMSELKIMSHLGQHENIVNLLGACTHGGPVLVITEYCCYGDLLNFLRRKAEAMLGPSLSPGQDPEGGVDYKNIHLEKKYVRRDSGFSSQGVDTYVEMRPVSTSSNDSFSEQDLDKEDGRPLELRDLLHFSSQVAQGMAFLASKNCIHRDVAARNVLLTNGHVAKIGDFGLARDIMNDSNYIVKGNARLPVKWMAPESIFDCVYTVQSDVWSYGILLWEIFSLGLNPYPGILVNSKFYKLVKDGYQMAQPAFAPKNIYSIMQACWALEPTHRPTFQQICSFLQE
Measurement Description: Assay 1: CSF-1R in vitro AlphaScreen assay
Type: biochemical
Condition Details: phosphorylation of biotinylated pEY substrate; 0.57 nM CSF-1R, 90 μM ATP
pIC50 is defined as minus the log10 of a concentration measured in mol/L.

Example entries begin here.
CCc1ccc(Nc2c(C(N)=O)cnc3cc(OC)c(C#CCO)cc23)cc1
7.74
CCOc1cc2ncc(C(N)=O)c(Nc3ccc(F)cc3F)c2cc1-c1ccc(=O)[nH]c1
8.15
COc1cc2ncc(C(N)=O)c(Nc3ccc(Cl)c(Cl)c3)c2cc1CCCN(C)C
9.00

Attention now shifts to the item below.
So, COc1cc2ncc(C(N)=O)c(Nc3ccc(F)cc3F)c2cc1CCCNC1CC1 ? Its pIC50 was 7.64
